Test system: SK-MEL-28 melanoma
Test: NCI-60 one-dose screen, 48 h (100 = growth as untreated, 0 = no growth, -100 = all killed)
Conditions: 10 µM unless noted
About 83,000 compounds went through this panel and 20% of them were active in at least one assay; those are over-represented in the sample as a whole.
Record form. Attribute: growth. Fill in for each entry.
# unit: % | format: bare number

q: So what does the record say about growth for COc1ccc(-c2nc3ccc(-c4nc5ccc(N6CCN(c7ccccc7)CC6)cc5[nH]4)cc3[nH]2)cc1OC ?
a: -47.5

q: Input O=C(CCCCC(=O)N/N=C\c1ccccc1O)N/N=C\c1ccccc1O
a: 48.3

q: How about this compound: COc1cc(/C=C/c2cc(O)c3cc(C(C)=O)c(=O)oc3c2)cc2c1O[C@]1(C)CC[C@@H](O)C(C)(C)[C@H]1C2
a: -0.116

q: Item: COc1cc(CNc2oc(-c3ccccc3)c(-c3ccccc3)c2C#N)cc(CN2CCN(C)CC2)c1O
a: -38.4

* * *

Tested on: T-47D breast
Assay: NCI-60 one-dose screen, 48 h
Conditions: 10 µM unless noted
Description: Growth inhibition of the T-47D human tumor cell line is measured as a screen for anti-cancer activity. Cells are grown in 96 well plates and exposed to the test compound for 48 hours. Compounds are tested at a single concentration, which is 10^-5 M for most compounds. The reported endpoint is percent growth (GI% or GIPRCNT), where numbers from 0 - 100% represent growth inhibition, and numbers from -100% - 0 represent cell death. For example, a value of 40 represents 60% growth inhibition. […]
About 83,000 compounds went through this panel and 20% of them were active in at least one assay; those are over-represented in the sample as a whole. Activity calls are given as the source filed them. Rule for the calls: active = growth percent below 10; inactive = the rest.
Respond with a class label; see 1.0 for active, 0.0 for inactive

q: Give the logged outcome of this assay for the following compound: O=C1c2c(O)cc(O)cc2-c2c(-c3ccc(O)cc3)oc3cc(O)cc1c23
a: 1.0

q: Input COc1nc2c(c(=O)n1C)CN(Cc1ccccc1)C=N2
a: 0.0

q: Then this compound: NC1=C(Cl)C(=O)c2ccc(S(N)(=O)=O)cc2C1=O
a: 1.0

q: Same read-out for COc1cc2c(cc1-c1c(C)noc1C)ncc1nc(C3CCOCC3)n([C@@H](C)COC(F)F)c12 ?
a: 0.0

q: Try this compound too: C=C1C(=O)O[C@H]2[C@H]1CC/C(COC(=O)c1cc3cc(OC)ccc3[nH]1)=C\CC[C@@]1(C)O[C@@H]21
a: 1.0

q: Another compound to check: Cc1cc(C)nc(SC2=C(Nc3ccc(O)cc3)C(=O)N(Cc3ccccc3)C2=O)n1
a: 0.0

q: Same again, this time with Cn1cc(C(=O)c2nc(-c3c[nH]c4ccc(Br)cc34)no2)c2cc(F)ccc21
a: 0.0

q: Further, for CCCCC/C(C=C(C#N)C#N)=C/c1ccccc1 ?
a: 0.0

q: CCCCC[C@H]1C/C=C2/C(=O)C=C[C@@H]2C/C=C\CCCC(=O)O1 , same question.
a: 1.0

q: Repeat for the following compound: N#Cc1c(-c2ccc(Cl)cc2)nc(NN=Cc2ccco2)nc1N1CCOCC1
a: 0.0

q: Let us now turn to Cc1nn(-c2cc(=O)[nH]c3ccccc23)c(N)c1C#N
a: 0.0

q: Please answer likewise for Cc1ccccc1COc1ccc(-c2onc(C)c2-c2ccc(Cl)cc2)cc1
a: 0.0

q: Note, next up: CC(=O)OC[C@H]1O[C@H](OC(C)=O)[C@H](NC(=O)/C=C/CCl)[C@@H](OC(C)=O)[C@@H]1OC(C)=O
a: 0.0

q: Do the same for c1ccc2[nH]c(-c3ccc(Nc4nc(N5CCCC5)nc5[nH]ncc45)cc3)nc2c1 please
a: 1.0

q: Let us now turn to C=CC(=O)Nc1cccc(-c2nc(SC)nc(Nc3ccccc3OC)c2C#N)c1
a: 1.0

q: Next compound: CCCCN1CCCn2c1nc1c2c(=O)n(CCC)c(=O)n1CCC
a: 0.0

q: O=S(=O)(Nc1ccc(Br)c(Cl)c1)c1ccc(-c2cnc(C3CC3)o2)cc1 , same question.
a: 0.0

q: Check CC(=O)c1cc(C(=O)c2ccc3c(c2)Sc2ccccc2N3)n2ccccc12 too.
a: 0.0

q: Same lookup for COc1cc(C(=O)/C=C/c2cccnc2Nc2ccc(Cl)cc2)cc(OC)c1OC , please.
a: 1.0

q: Same thing, different compound: COc1ccc(SC2c3cc(OC)c(OC)cc3Oc3nc(N)c(C#N)c(N)c32)cc1 (stereo not given)
a: 1.0

* * *

Test system: RPMI-8226 leukemia
Assay: NCI-60 one-dose screen, 48 h (100 = growth as untreated, 0 = no growth, -100 = all killed)
Settings: 10 µM unless noted
This is part of a sample that, as a whole, favours compounds with a hit. Of some 83,000 tested, about 20% had one in any assay. Activity calls are given as the source filed them. The calls were made as follows: active = growth percent below 10; inactive = the rest.
Measured attribute: growth

q: Give the measured growth of COc1ccc(/C=N/C2=C(C#N)C(c3ccc(N(C)C)cc3)c3ccc4ccccc4c3O2)cc1 (stereo not given) .
a: 63% (inactive)

q: Same thing, different molecule: CSc1nc(NCCO)c(C#N)c(-c2cccc([N+](=O)[O-])c2)n1
a: 103% (inactive)

q: Moving on to COC(=O)c1ccc2oc(NC(=O)c3ccc(Nc4ccc([N+](=O)[O-])cc4C)c([N+](=O)[O-])c3)nc2c1
a: 108% (inactive)

q: Please answer likewise for O=[N+]([O-])c1ccc2c(c1)Cc1cc(F)ccc1-2
a: 89.3% (inactive)

q: How about this molecule: O=C(/C=C/c1ccccc1)c1ccc(O)c(CN2CCN(c3cc4c(cc3F)c(=O)c(C(=O)O)cn4C3CC3)CC2)c1
a: -7.8% (active)

q: Next entry: COc1cc2c(cc1O)CC[C@@H]1[C@@H]2CC[C@]2(C)[C@@H](OCCCN(C)C)CC[C@@H]12
a: -32.9% (active)

q: // query: Cn1cc(C(=O)c2nc(-c3c[nH]c4ccc(F)cc34)no2)c2cc(F)ccc21
a: 98.8% (inactive)

q: Next: CC(C)CSc1nc(N)nc2c1ncn2C1OC(CO)C(O)C1O (stereo not given)
a: 103% (inactive)

q: Next up: COc1ccc(-c2nc(SCC(=O)Nc3ccc(C(=O)/C=C/c4ccc(Cl)cc4)cc3)[nH]c(=O)c2C#N)cc1
a: 98.3% (inactive)

q: Ok, now O=[N+]([O-])c1ccc(Nc2nc(NCCN3CCOCC3)ncc2[N+](=O)[O-])cc1
a: 100% (inactive)

q: Follow-up item: C#CCOc1ccc2ncnc(NCc3cccc(NC(=O)CCl)c3)c2c1
a: 21% [8.25 µM] (inactive)

q: Again, but for O=c1cc(CSc2nnc(SCc3cc(=O)oc4c3ccc3ccccc34)o2)c2ccc3ccccc3c2o1
a: 99.8% (inactive)

q: Do the same for O=C(CCl)Oc1ccc(-c2ccccc2)c(Br)c1 please
a: 106% (inactive)

q: Can you handle O=C1c2c(O)cc(O)cc2-c2c(-c3ccc(O)cc3)oc3cc(O)cc1c23 next?
a: 41.8% (inactive)

q: How about C=CCSSc1ncnc2c1ncn2C1OC(CO)C(O)C1O (stereo not given) ?
a: -8.17% (active)

q: Likewise for Nc1nc2ncc(CCNc3ccc(C(=O)O)cc3)nc2c(=O)[nH]1 ?
a: 99.4% (inactive)

q: What do we get for O=C(N=Nc1c(O)[nH]c2ccc(Br)cc12)c1cc(-c2ccccc2)on1 ?
a: 105% (inactive)

q: Subsequent entry: O=C1C=C(OCC=C(Cl)Cl)C(=O)c2ccccc21
a: 45.6% (inactive)

q: Next record, please: CN1CCN(CCCOc2cccc3nc(Nc4ccc(Cl)c(F)c4)ccc23)CC1
a: 23.9% (inactive)

q: Quick one: O=C1c2cc3c(cc2-c2c1c1ccc(F)cc1c(=O)n2C[C@H](O)[C@@H](O)[C@H](O)CO)OCO3
a: -0.286% (active)

* * *

Test system: SNB-75 CNS
Test: NCI-60 one-dose screen, 48 h
Conditions: 10 µM unless noted
About 83,000 compounds went through this panel and 20% of them were active in at least one assay; those are over-represented in the sample as a whole. Active and inactive are the calls of the source. How the source made its calls: active means growth percent below 10; inactive means the rest.
Choose the fitting class; nothing outside yes (1) = active, no (0) = inactive is accepted.

q: # lookup: test call for COc1ccc(Nc2nc(SC)nc(-c3cccc([N+](=O)[O-])c3)c2C#N)cc1
a: no (0)

q: Next molecule: C=C1c2nc3ccccc3n2C=C(c2ccc(OC)cc2)N1Cc1ccccc1
a: no (0)

q: Now the same for N#CN1CCC[C@H]1C(=O)N1CCc2c(-c3[nH]nc4ncccc34)cccc21
a: yes (1)

q: Further, for Cc1cc(N2CCN(c3ccnc4cc(Cl)ccc34)CC2)nc(NC2CCCCC2)n1 ?
a: no (0)

q: // same read-out, input: COc1ccc(NC2=C(Sc3nc(C)cc(C)n3)C(=O)N(Cc3ccccc3)C2=O)cc1Cl
a: no (0)

q: Next molecule: Nc1nc2ccc3[nH]ncc3c2c2c1CCCC2
a: yes (1)

q: Now this one: O=C1c2cccc3cccc(c23)C(=O)N1CCCCN1CCN(CCCCOc2ccc(-c3nc4ccc(N5CCOCC5)cc4[nH]3)cc2)CC1
a: no (0)

q: Check CCCCCCN(CCCCCC)C(=N)c1ccnc2ccccc12 too.
a: no (0)

q: Field entry: CC(C)(CCCN=C(N)Nc1ccc(Cl)cc1)c1ccc(F)cc1
a: no (0)

q: // repeat for Fc1ccc(CNc2cccc3[nH]c(C(F)(F)F)nc23)cc1 and report
a: no (0)

q: What do we get for C[n+]1ccccc1/C=C/c1ccc2cccc(O)c2n1 ?
a: no (0)

q: // repeat for O=Nc1c(O)c(Cl)cc2ccccc12 and report
a: no (0)

q: Continue with NC(=NCCCOc1ccc(Cl)cc1)Nc1ccc(C(F)(F)F)cc1
a: no (0)

q: And what about the molecule Clc1ccc2c(NCCCNc3nc(-n4ccnc4)nc4ccccc34)ccnc2c1 ?
a: no (0)

q: Try the molecule COc1ccc(-n2nc(C)c3c(Nc4ccc(NC(=O)Nc5cc(C(F)(F)F)ccc5F)cc4)ncnc32)cc1
a: no (0)

q: Repeat with OC(COc1cccc2ccccc12)CN1CCN(c2ccccc2Cl)CC1 (stereo not given)
a: no (0)

q: Next record, please: COc1cc(C(=O)/C=C/c2cccnc2Nc2ccc(Cl)cc2)cc(OC)c1OC
a: yes (1)

q: Next entry: CC[N+](CC)=c1sc2c(s1)C(c1ccc(Cl)cc1)Oc1ccc(Cl)cc1-2 (stereo not given)
a: yes (1)

q: Could you do the same for COc1ccc(/C=C\c2cc(OC)c(OC)c(OC)c2)cc1OC(=O)c1cccc(Cn2cc(CCOC(=O)[C@H](N)Cc3cn(C)c4ccccc34)nn2)c1 , please?
a: no (0)

q: For CCOc1nc(-c2ccccc2)cc2c(O)c(C(=O)O)[nH]c(=O)c12 then?
a: no (0)

q: Same read-out for C=C(C)C1CC(O)C2(C)CCCC3C2C1CC(C)C3(C)CC/C(C)=C/C(O)C1CCC(=O)c2c(OC)cc(OC)cc21 (stereo not given) ?
a: no (0)

q: Next up: O=[N+]([O-])c1ccc(Nc2nc(NCCN3CCOCC3)ncc2[N+](=O)[O-])cc1
a: no (0)

q: One more molecule: c1csc(C2=NN3C(C2)c2ccccc2OC3c2ccncc2)c1 (stereo not given)
a: no (0)

q: Now the same for COc1cccc2c1C(=O)c1c(O)c3c(c(O)c1C2=O)C[C@](O)(C(=O)CO)C[C@H]3O[C@@H]1C[C@@H](NC(=O)CCCN(C)C2(c3ccc(F)cc3)CC3CCC2C3)[C@H](O)[C@@H](C)O1 (stereo not given in full)
a: no (0)

q: Same question for COc1ccc(-c2nn(-c3ccc(Cl)cc3)cc2-c2nc3ccccc3[nH]2)cc1 please.
a: no (0)

q: Please answer likewise for CCOc1cc2ncc(C#N)c(Nc3ccc(OCc4cccc(F)c4)c(Cl)c3)c2cc1NC(=O)CC1CCSS1 (stereo not given)
a: no (0)

q: COc1ccccc1Nc1nc(-c2cc3cccc(C(F)(F)F)c3oc2=O)cs1 ?
a: no (0)

q: Follow-up entry: CN1CCN(c2nc(NCCCCNc3ccnc4cc(Cl)ccc34)c3ccccc3n2)CC1
a: no (0)

q: Now consider COc1ccc2[nH]cc(-c3noc(C(=O)c4cn(C)c5ccc(F)cc45)n3)c2c1 .
a: no (0)

q: For COc1cccc(-c2nc3sccn3c2-c2ccnc(NCCNS(=O)(=O)c3ccc(F)cc3)c2)c1 then?
a: no (0)

q: Subsequent entry: Cn1c(NCCc2ccc(O)c(O)c2)nc2c1c(=O)n(Cc1ccc(Cl)c(Cl)c1)c(=O)n2C
a: no (0)

q: Can you check Cc1cc(N2CCCCCC2)nc(NC2CCCC(Nc3ccnc4cc(Cl)ccc34)C2)n1 (stereo not given) next?
a: yes (1)

q: Can you handle Cc1ccc(NS(=O)(=O)c2ccc(-c3cnc(C4CC4)o3)cc2)cc1C next?
a: yes (1)

q: Now consider O=C(C(=O)c1ccc2c(c1)OCO2)c1ccc2c(c1)OCO2 and answer again.
a: no (0)

q: Similarly, CC(C)(C)N1CCC1CN (stereo not given) ?
a: no (0)

q: And CC(C)(C)CC(C)(C)c1ccc(OCCOCC[N+](C)(C)Cc2ccccc2)cc1 ?
a: yes (1)

q: Another: Nc1ccc(-c2cc3c(Nc4ccc(Oc5cccc(C(F)(F)F)c5)c(Cl)c4)ncnc3s2)cc1
a: no (0)

q: How about CC/C=C\C[C@H]1C/C=C2/C(=O)C=C[C@H]2C/C=C\CCCC(=O)O1 ?
a: no (0)

q: Then what about the molecule C=CC(COC(c1ccccc1)(c1ccccc1)c1ccccc1)N(CC)CC (stereo not given) ?
a: no (0)

q: Would you mind doing CC(=O)Oc1ccc(Cl)cc1CN(C(C)=O)C1CCCCC1 as well?
a: no (0)
